- experiment notes: chemical genetic growth profiling, strain panel (AID 1159580);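 note: tested at 20 µM; growth read once vehicle control cultures reached saturation at 30 °C; 1 = growth at the plate median or of vehicle wells; lower values mean less growth of the strain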
- measurement parameters: S. cerevisiae deletion strains, growth OD, locus YDL017W, strain CDC7
In all, about 5,500 compounds went through this assay and about 2,000 (36%) were called active. Not shown: some 18% with an inconclusive outcome. Cut-off read from the data, not from the text of the source: active = normalized growth mostly below about 0.91 (no sharp cut-off); inconclusive = no clear call, values can overlap the other calls; inactive = mostly above about 0.92. The list shows a part of the results.
Assign a class; possible classes are yes for active, no for inactive

Completed entries (count: 8):
Any idea what this test logged for CC1=CC(=O)C(CCOCCC2=CC(=O)C(C)=CC2=O)=CC1=O ?
no

Any idea what this test logged for NCCCN=c1ccc2c3c1c(O)c1c(O)ccc(=O)c1c3[nH]n2CCNCCO ?
no

Any idea what this test logged for C/C(=N/NC(N)=S)c1ccccn1 ?
no

Any idea what this test logged for O=C(Nc1c(Br)c(C2CC2)nn1-c1ccccc1)C(Cl)(Cl)Cl ?
no

Any idea what this test logged for N#C/C(=N/Nc1ccccc1Cl)S(=O)(=O)c1ccc(Cl)cc1 ?
no

Any idea what this test logged for O=C(Oc1cc(Cl)c(Cl)cc1Cl)C1c2ccccc2Oc2ccccc21 ?
no

Any idea what this test logged for N#Cc1c(Cl)c(Cl)c(Cl)c(Cl)c1C#N ?
yes

Any idea what this test logged for Cc1c(Cl)cccc1NC(=S)N1CCCN(c2ccc(C(F)(F)F)cc2[N+](=O)[O-])CC1 ?
no

More entries:
Any idea what this test logged for Cc1c(C(=O)N2CCCCC2)cc(-c2ccccc2)n1-c1ccccc1 ?
no

Any idea what this test logged for Cc1ccccc1C(=O)N1CCc2c([nH]c3ccccc23)C1C(F)(F)F (stereo unspecified) ?
no

Any idea what this test logged for O=C(C=C(O)c1ccc(Br)cc1)C(=O)Nc1ccccc1 ?
yes

Any idea what this test logged for O=[N+]([O-])c1cc(C(F)(F)F)ccc1-n1ccc(-c2cccs2)n1 ?
no

====

- experiment notes: chemical genetic growth profiling, strain panel (AID 1159580);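 note: tested at 20 µM; growth read once vehicle control cultures reached saturation at 30 °C; 1 = growth at the plate median or of vehicle wells; lower values mean less growth of the strain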
- measurement parameters: S. cerevisiae deletion strains, growth OD, locus YNR052C, strain pop2, active compounds read low
Among all 5,500 compounds or so, about 2,000 (36%) were called active. Not shown: some 18% with an inconclusive outcome. Some of the results follow.
Reported normalized growth values are given for each entry in this list.
Lab note: write the figure by itself, no unit.

Here are 10 compounds together with their reported answers.
Give the reported value of normalized growth for this record: CC[C@@H](CO)NCCN[C@@H](CC)CO
1

Give the reported value of normalized growth for this record: c1ccc(CN(CC2=NCCN2)c2ccccc2)cc1
0.996

Give the reported value of normalized growth for this record: C[C@@H]1O[C@@H](O[C@H]2[C@@H](Oc3cc(O)c4c(c3)O[C@H](c3ccc(O)cc3)CC4=O)O[C@H](CO)[C@@H](O)[C@@H]2O)[C@H](O)[C@H](O)[C@H]1O
0.998

Give the reported value of normalized growth for this record: COc1ccc([C@@H]2CC(=O)c3c(O)cc(O)cc3O2)cc1O
1.02

Give the reported value of normalized growth for this record: O=C1CC(c2ccccc2)Oc2ccccc21 (configuration not stated)
0.971

Give the reported value of normalized growth for this record: CC(C)N(C(=O)CCl)c1ccccc1
1.02

Give the reported value of normalized growth for this record: O=C1C[C@@H](c2ccc(O)cc2)Oc2cc(O)cc(O)c21
1.01

Give the reported value of normalized growth for this record: O=C(O)C1C(O)CCC2CN3CCc4c([nH]c5ccccc45)C3CC21 (configuration not stated)
1

Give the reported value of normalized growth for this record: CCc1cccc(C)c1N(C(=O)CCl)C(C)COC (configuration not stated)
1.02

Give the reported value of normalized growth for this record: CNc1ccccc1C(=O)N1CCc2c([nH]c3ccccc23)C1=O
1.02

More entries:
Give the reported value of normalized growth for this record: COC(=O)[C@H]1[C@H]2C[C@H]3c4[nH]c5ccccc5c4CCN3C[C@H]2CC[C@@H]1O
0.998

Give the reported value of normalized growth for this record: c1ccc(CC2=NCCN2)cc1
0.911
